Test: Pharmacokinetics of caspofungin during continuous venovenous hemodiafiltration (CVVHD)
Assay type: in vivo, human
Conditions: human, in vivo, iv, patient 2; 6 h after infusion ended; steady state, CVVHD; HPLC; read-out: Arterial caspofungin concentration
reported.metric: level at 6 h (ng/mL)
Provide the reading as a plain figure in ng/mL.

Query: Param item = CC[C@H](C)C[C@H](C)CCCCCCCCC(=O)N[C@H]1C[C@@H](O)[C@@H](NCCN)NC(=O)[C@@H]2[C@@H](O)CCN2C(=O)[C@H]([C@H](O)CCN)NC(=O)[C@H]([C@H](O)[C@@H](O)c2ccc(O)cc2)NC(=O)[C@@H]2C[C@@H](O)CN2C(=O)[C@H]([C@@H](C)O)NC1=O [caspofungin] ; retrieve measured level at 6 h.
Result: 3960

* * *

Experiment: Pharmacokinetics of caspofungin during continuous venovenous hemodiafiltration (CVVHD)
Type: in vivo, human
Details: human, in vivo, iv, patient 7; 8 h after infusion ended; steady state, CVVHD; HPLC; read-out: Arterial caspofungin concentration
Description: The aim of the present study was to describe the pharmacokinetics of caspofungin in 12 critically ill adult patients with suspected or proven invasive candidiasis who were receiving continuous venovenous hemodiafiltration (CVVHD). CVVHD was performed using a polysulfone hemofilter (Fresenius, Germany). Caspofungin was administered at usual doses. […]
reported.metric: level at 8 h (ng/mL)
Provide the reading as a plain figure in ng/mL.

Query: Param item = CC[C@H](C)C[C@H](C)CCCCCCCCC(=O)N[C@H]1C[C@@H](O)[C@@H](NCCN)NC(=O)[C@@H]2[C@@H](O)CCN2C(=O)[C@H]([C@H](O)CCN)NC(=O)[C@H]([C@H](O)[C@@H](O)c2ccc(O)cc2)NC(=O)[C@@H]2C[C@@H](O)CN2C(=O)[C@H]([C@@H](C)O)NC1=O ; retrieve measured level at 8 h.
Result: 3100

* * *

Assay: Pharmacokinetics of caspofungin during continuous venovenous hemodiafiltration (CVVHD)
Format: in vivo, human
Settings: human, in vivo, iv, patient 7; 2 h after infusion ended; steady state, CVVHD; HPLC; read-out: Arterial caspofungin concentration
reported.metric: level at 2 h (ng/mL)
Provide the reading as a plain figure in ng/mL.

Query: Param item = CC[C@H](C)C[C@H](C)CCCCCCCCC(=O)N[C@H]1C[C@@H](O)[C@@H](NCCN)NC(=O)[C@@H]2[C@@H](O)CCN2C(=O)[C@H]([C@H](O)CCN)NC(=O)[C@H]([C@H](O)[C@@H](O)c2ccc(O)cc2)NC(=O)[C@@H]2C[C@@H](O)CN2C(=O)[C@H]([C@@H](C)O)NC1=O [caspofungin] ; retrieve measured level at 2 h.
Result: 4960

* * *

Assay: Pharmacokinetics of caspofungin during continuous venovenous hemodiafiltration (CVVHD)
Assay type: in vivo, human
Details: human, in vivo, iv, patient 1; 8 h after infusion ended; steady state, CVVHD; HPLC; read-out: Arterial caspofungin concentration
reported.metric: level at 8 h (µg/mL)
Provide the reading as a plain figure in µg/mL.

Query: Param item = CC[C@H](C)C[C@H](C)CCCCCCCCC(=O)N[C@H]1C[C@@H](O)[C@@H](NCCN)NC(=O)[C@@H]2[C@@H](O)CCN2C(=O)[C@H]([C@H](O)CCN)NC(=O)[C@H]([C@H](O)[C@@H](O)c2ccc(O)cc2)NC(=O)[C@@H]2C[C@@H](O)CN2C(=O)[C@H]([C@@H](C)O)NC1=O ; retrieve measured level at 8 h.
Result: 5

* * *

Assay: Pharmacokinetics of caspofungin during continuous venovenous hemodiafiltration (CVVHD)
Type: in vivo, human
Details: human, in vivo, iv, patient 2; 4 h after infusion ended; steady state, CVVHD; HPLC; read-out: Arterial caspofungin concentration
reported.metric: level at 4 h (ng/mL)
Provide the reading as a plain figure in ng/mL.

Query: Param item = CC[C@H](C)C[C@H](C)CCCCCCCCC(=O)N[C@H]1C[C@@H](O)[C@@H](NCCN)NC(=O)[C@@H]2[C@@H](O)CCN2C(=O)[C@H]([C@H](O)CCN)NC(=O)[C@H]([C@H](O)[C@@H](O)c2ccc(O)cc2)NC(=O)[C@@H]2C[C@@H](O)CN2C(=O)[C@H]([C@@H](C)O)NC1=O [caspofungin] ; retrieve measured level at 4 h.
Result: 4490
